# System: Plasmodium falciparum
# assay_overview: GSK_TCMDC: Inhibition of Plasmodium falciparum 3D7 in whole erythrocytes, using parasite LDH activity as an index of growth.
# Assay type: functional, organism-based
# assay_conditions: Plasmodium falciparum, 3D7
XC50 under 800 nM gets condition met, anything at or over 800 nM gets condition not met.

Please review the entries below; each comes with its answer.
Exercise: Input `CN(C)CCOc1cc(NC(=O)Nc2ccc3c(c2)CCCC3=O)ccc1I` ; condition: XC50 strictly below 800 nM. Does it hold?
Key: condition not met

Exercise: Input `O=C(NCCCCN1CCC(c2cccc3ccccc23)CC1)c1ccc(-c2ccc(C(F)(F)F)cn2)cc1` ; condition: XC50 strictly below 800 nM. Does it hold?
Key: condition not met

Exercise: Input `Fc1ccc2[nH]c(-c3ccc(-c4ccc(CN5CCN(c6ccncc6)CC5)cc4)cc3)nc2c1` ; condition: XC50 strictly below 800 nM. Does it hold?
Key: condition met

Exercise: Input `O=C(NCCN1CCCC1)c1cccc(Nc2nccc(Nc3ccc(Oc4ccccc4)cc3)n2)c1` ; condition: XC50 strictly below 800 nM. Does it hold?
Key: condition met

Exercise: Input `CCCCCCN1CCCN(Cc2ccc(C(=O)Nc3ccc(C(C)C)cc3)cc2)CC1` ; condition: XC50 strictly below 800 nM. Does it hold?
Key: condition not met

Exercise: Input `Cc1cc2nc(-c3ccc(/C=C/C(=O)NC4CCN(Cc5ccccc5)CC4)cc3)[nH]c2cc1C` ; condition: XC50 strictly below 800 nM. Does it hold?
Key: condition met

Exercise: Input `Cc1noc(C)c1-c1cccc(CNCc2cccc(-c3cccc(-c4nc5ccccc5[nH]4)c3)c2)c1` ; condition: XC50 strictly below 800 nM. Does it hold?
Key: condition met

Lab note: next molecule to report on.
Exercise: Input `CS(=O)(=O)c1ccc(-c2cnc(N)c(-c3ccc(O)cc3)c2)cc1` ; condition: XC50 strictly below 800 nM. Does it hold?
Key: condition not met

---

# Test system: Plasmodium falciparum
# assay_overview: GSK_TCMDC: Inhibition of Plasmodium falciparum 3D7 in whole erythrocytes, using parasite LDH activity as an index of growth.
# Type: functional, organism-based
# assay_conditions: Plasmodium falciparum, 3D7
outcome_measure: XC50 (nM)
Supply the numeric figure in nM, leaving out any unit text.

Exercise: Form entry - test system: Plasmodium falciparum; read-out: XC50; compound: `Nc1c2c(nc3ccc(NC(=O)CCCc4ccccc4)cc13)CCCC2`
Key: 429

Others:
Exercise: Form entry - test system: Plasmodium falciparum; read-out: XC50; compound: `Cc1ccc(Nc2nc(C)cc(NC3CC3)n2)cc1`
Key: 1220

Exercise: Form entry - test system: Plasmodium falciparum; read-out: XC50; compound: CCCCCCCN1CC[C@@H](CCCc2ccnc3ccc(OCC4CCCNC4)cc23)[C@@H](CC)C1 (stereo partly drawn)
Key: 625

Exercise: Form entry - test system: Plasmodium falciparum; read-out: XC50; compound: `CCCCNC(=O)[C@@H]1CCCN1C(=O)c1ccc(O)c(-c2ccc(Cl)c(Cl)c2)c1`
Key: 751

Exercise: Form entry - test system: Plasmodium falciparum; read-out: XC50; compound: `Cc1cccc2nc(-c3ccc(-c4cccc(CNCc5ccccc5)c4)cc3)[nH]c12`
Key: 246

Exercise: Form entry - test system: Plasmodium falciparum; read-out: XC50; compound: `CC(=O)c1ccc(-c2ccc(C(=O)NCCCCN3CCC(c4ccc5c(c4O)CCCC5)CC3)cc2)cc1`
Key: 762

Exercise: Form entry - test system: Plasmodium falciparum; read-out: XC50; compound: COc1cc2c(cc1OC)CC(NCCCCCCNCCc1ccc(Cl)cc1)CC2 (stereo not drawn)
Key: 738

Exercise: Form entry - test system: Plasmodium falciparum; read-out: XC50; compound: CCCCOc1ccc(C(O)C(CN2CCCCC2)c2ccccc2)cc1 (stereo not drawn)
Key: 893

Exercise: Form entry - test system: Plasmodium falciparum; read-out: XC50; compound: `O=C(Nc1ccccc1Cc1ccccc1)c1ccccc1C(F)(F)F`
Key: 782

Exercise: Form entry - test system: Plasmodium falciparum; read-out: XC50; compound: `CN1CCC(N2CCN(Cc3cccc(-c4ccc(-c5nc6ccccc6[nH]5)cc4)c3)CC2)CC1`
Key: 156

Exercise: Form entry - test system: Plasmodium falciparum; read-out: XC50; compound: CC1CCCN(S(=O)(=O)c2ccc(NC(=O)c3cc(-c4ccccc4O)n[nH]3)cc2)C1 (stereo not drawn)
Key: 757

Exercise: Form entry - test system: Plasmodium falciparum; read-out: XC50; compound: `O=C(Nc1cccc(N2CCC(NCc3cnn(-c4cccc(F)c4)c3)CC2)c1)c1ccncc1`
Key: 1390

---

# Tested on: Plasmodium falciparum
# assay_overview: GSK_TCMDC: Inhibition of Plasmodium falciparum 3D7 in whole erythrocytes, using parasite LDH activity as an index of growth.
# Format: functional, organism-based
# assay_conditions: Plasmodium falciparum, 3D7
outcome_measure: log10 XC50 (log10 of the value in nM)
Use the decimal logarithm of XC50 (nM).

Exercise: Any idea what log10 XC50 was measured for `CN(C)CCCOc1ccc(CCNCc2cccc(Oc3ccc(Cl)cc3)c2)cc1` ?
Key: 2.95

Exercise: Any idea what log10 XC50 was measured for `Cc1noc(C)c1-c1cccc(CNCc2ccc(-c3ccc(-c4nc5cc(F)ccc5[nH]4)s3)cc2)c1` ?
Key: 2.63

Exercise: Any idea what log10 XC50 was measured for COc1ccc(CC(=O)NC(CCN2CCC3(CCc4ccccc43)CC2)c2ccc(Cl)c(Cl)c2)cc1 (stereo not given) ?
Key: 2.72

Exercise: Any idea what log10 XC50 was measured for CCC(=O)N(c1ccccc1)C1CCN(CCCC(NC(=O)c2cc(C(F)(F)F)cc(C(F)(F)F)c2)c2ccc(Cl)c(Cl)c2)CC1 (stereo not given) ?
Key: 2.90

Exercise: Any idea what log10 XC50 was measured for `CC1(C)N=C(NC(=O)Nc2ccc([N+](=O)[O-])cc2)N=C(N)N1OCc1cccc2ccccc12` ?
Key: 1.77

---

# Test system: Plasmodium falciparum
# assay_overview: GSK_TCMDC: Inhibition of Plasmodium falciparum 3D7 in whole erythrocytes, using parasite LDH activity as an index of growth.
# Type: functional, organism-based
# assay_conditions: Plasmodium falciparum, 3D7
outcome_measure: XC50 (nM)
Supply the numeric figure in nM, leaving out any unit text.

Exercise: Any idea what XC50 was measured for `O=S(=O)(c1c(Cl)cc(Cl)cc1Cl)N1CCCCC(c2ccc(Cl)cc2)=N1` ?
Key: 402

Exercise: Any idea what XC50 was measured for `CCOc1cc(C)ccc1N(C1CCN(CCCCNC(=O)c2ccc(-c3ccc(C(F)(F)F)cc3)cc2)CC1)S(=O)(=O)c1ccccc1` ?
Key: 1020

Others:
Exercise: Any idea what XC50 was measured for `Cc1[nH]c(C)c(-c2cc3ccccc3o2)c(=O)c1Cl` ?
Key: 1720

Exercise: Any idea what XC50 was measured for COc1cc(SC)ccc1C(=O)N1CC(C)CC(C)C1 (centres undefined) ?
Key: 354

Exercise: Any idea what XC50 was measured for `CC[C@H](C)CNC(=O)c1ccnc(-c2ccc(CN3CCC(N4CCCC4)CC3)cc2)c1` ?
Key: 891

Exercise: Any idea what XC50 was measured for CCc1ccc(CN2CCC(CNC(=O)c3cc(-c4cccc(C(F)(F)F)c4)cs3)C2)cc1 (centres undefined) ?
Key: 753

Exercise: Any idea what XC50 was measured for `COc1cccc(CNC[C@@H](O)[C@H](Cc2ccccc2)NC(=O)c2cc(C3CCCC3)cc(N3CCCCS3(=O)=O)c2)c1` ?
Key: 599

Exercise: Any idea what XC50 was measured for Cc1ccc(/C=C/C(=O)NC2CCC(N3CCC(c4ccccc4C)CC3)CC2)cc1F (centres undefined) ?
Key: 1040

Exercise: Any idea what XC50 was measured for `O=C(O)c1ccc(OCOCOc2ccc(C(=O)O)c(O)c2)cc1O` ?
Key: 190

---

# Test system: Plasmodium falciparum
# assay_overview: GSK_TCMDC: Inhibition of Plasmodium falciparum 3D7 in whole erythrocytes, using parasite LDH activity as an index of growth.
# Assay type: functional, organism-based
# assay_conditions: Plasmodium falciparum, 3D7
XC50 under 900 nM gets condition met, anything at or over 900 nM gets condition not met.

Please review the entries below; each comes with its answer.
Exercise: Input CC(O)C1CCCCN1C(=O)c1ccc(-c2ccc(-c3nc4ccccc4[nH]3)s2)cc1 (stereo not given) ; condition: XC50 strictly below 900 nM. Does it hold?
Key: condition not met

Exercise: Input `Cn1cncc1-c1ccc2ncnc(Nc3ccc4c(cnn4Cc4ccccc4)c3)c2c1` ; condition: XC50 strictly below 900 nM. Does it hold?
Key: condition met

Exercise: Input `CC1(C)N=C(N)N=C(N)N1OCc1cc2ccccc2cc1CON1C(N)=NC(N)=NC1(C)C` ; condition: XC50 strictly below 900 nM. Does it hold?
Key: condition met

Exercise: Input `Cc1cc(C(=O)NC2CCN(CC3(c4ccc(Cl)cc4)CCC3)CC2)on1` ; condition: XC50 strictly below 900 nM. Does it hold?
Key: condition met

Exercise: Input `CN(c1ccc(NC(=O)CCOc2ccccc2)cc1)C1CCN(Cc2cccc(O)c2)CC1` ; condition: XC50 strictly below 900 nM. Does it hold?
Key: condition not met

Exercise: Input `CCN(CC)CCNc1ccnc2[nH]c3ccc(Cl)cc3c12` ; condition: XC50 strictly below 900 nM. Does it hold?
Key: condition met

Others:
Exercise: Input `COc1ccc(N2CCN(CCCCNC(=O)c3ccc(NC(=O)c4cc(Cl)cc(Cl)c4)cc3)CC2)c(OC)c1` ; condition: XC50 strictly below 900 nM. Does it hold?
Key: condition met

Exercise: Input `COc1ccc(C=CC(=O)N2CCC(CN3CCC(c4c[nH]c5ccccc45)CC3)CC2)cc1OC` ; condition: XC50 strictly below 900 nM. Does it hold?
Key: condition not met
